# System: HCT-15 colon
# ASSAY_INFO: NCI-60 one-dose screen, 48 h (100 = growth as untreated, 0 = no growth, -100 = all killed)
# MEASUREMENT_CONTEXT: 10 µM
The panel holds about 83,000 compounds, 20% with a hit somewhere; the sample as a whole holds those more often.
REPORTED_METRIC: growth (%)
# value in %; strip the unit string

Recorded growth, per entry:
CC1(C)CC[C@]2(C(=O)N3CCOCC3)CC[C@]3(C)C(=CC[C@@H]4[C@@]5(C)CC[C@H](NCO)C(C)(C)[C@@H]5CC[C@]43C)[C@H]2C1 = -83
CC(=O)Nc1ccc(-n2cnc3cc(-c4ccc(O)cc4)ccc32)cc1F = 5.21
CC(C)(C)c1ccc(NCc2cn(-c3ccc(C(=O)O)cc3)nc2-c2ccc(C#N)cc2)cc1 = -54.6
CCN(CC)CCOc1ccc(C(=C(C)c2ccccc2)c2ccc(OCCN(CC)CC)cc2)cc1 = -31.2
O=C(CSc1nnc(-c2ccc3nc(-c4ccccc4)[nH]c3c2)o1)Nc1ccc(Br)cc1 = 38.1

// sample CCCn1c(=O)c2[nH]c(-c3ccc(OCc4nc5ccccc5[nH]4)cc3)nc2n(CCC)c1=O , its growth was 63.2

// sample COc1cccc2nc(Nc3ccc(F)c(NC(=O)c4ccc(CN5CCN(C)CC5)c(C(F)(F)F)c4)c3)ccc12 , its growth was -83

// sample CCOc1ccc(/C=N/NC(=O)Cn2nc(Cc3ccccc3)c3onc(C)c3c2=O)cc1 , its growth was 63.1
